target: SARS2 coronavirus 3CL protease (Severe acute respiratory syndrome coronavirus 2); assay: biochemical; details: 5 nM enzyme, 30 min pre-incubation with compound, 15 μM peptide substrate, 4 h at room temperature; read-out: FRET Potency (nM); IC50 values in the SARS2 3CLPro FRET assay
// NB: equality with 7 nM counts as F; only IC50 strictly below is T

{"columns": ["Smiles str", "Assigned label"],
 "data": [
  ["CNC(=O)C(=O)[C@H](C[C@@H]1C[C@@H](C)NC1=O)NC(=O)c1cc(Cl)ccc1NC(=O)c1cncc(C#N)c1", "F"],
  ["CO[C@@H](C)C(=O)Nc1ccc(Cl)cc1C(=O)N[C@@H](C[C@@H]1C[C@@H](C)NC1=O)C(=O)C(=O)NC1CC1", "F"],
  ["CNC(=O)C(=O)[C@H](C[C@@H]1C[C@@H](C)NC1=O)NC(=O)c1cc(Cl)ccc1NC(=O)[C@@H](N(C)C(=O)OC)C(C)(C)C", "F"],
  ["CNC(=O)C(=O)[C@H](C[C@@H]1CCNC1=O)NC(=O)c1cc(Cl)ccc1NC(=O)OC1CCC1", "T"],
  ["O=C(NC1CC1)C(=O)[C@H](C[C@@H]1CCNC1=O)NC(=O)c1cc(Cl)ccc1NC(=O)C1CC(F)(F)C1", "F"],
  ["C[C@@H]1C[C@@H](C[C@H](NC(=O)c2cc(Cl)ccc2NC(=O)c2ccnc(C(F)F)c2)C(=O)C(=O)NC2CC2)C(=O)N1", "F"]
]}

// provenance: patent US20240228535A1
